Values compiled from PubChem BioAssay AID1777.

- SYSTEM UNDER TEST: Kappa-type opioid receptor (Homo sapiens)
- TEST NAME: KOR agonists, beta-arrestin recruitment, primary screen, cell-based, luminescence, uHTS (AID 1777)
- PROTOCOL CONDITIONS: at 10 µM, active compounds read high
Hit rate of the full screen: of about 280,000 compounds, about 50 (0.02%) were called active. Shown is part of a subset that was picked to be rich in actives. Entries with a potency or affinity are not part of this list.
ENDPOINT NAME: activation (%)
Number in %, nothing else.

Would you please look over these solved cases?
>  <MOLECULE>
COc1ccc(C)cc1NC(=O)CSc1nnc(-c2ccccn2)n1Cc1ccco1

>  <activation, %>
1.2

$$$$
>  <MOLECULE>
O=C(CSc1nnc(-c2ccccn2)n1Cc1ccco1)c1ccc(Cl)cc1

>  <activation, %>
81.9

$$$$
>  <MOLECULE>
CC(=O)N1CCN(c2ccc(NC(=O)c3cc(Cl)ccc3Cl)cc2)CC1

>  <activation, %>
-3.7

$$$$
>  <MOLECULE>
CCC(c1nnnn1C1CCCC1)N(Cc1cccs1)Cc1cc2cc(C)ccc2[nH]c1=O (centres undefined)

>  <activation, %>
3.2

$$$$
>  <MOLECULE>
C(=C\c1ccccc1)/CSc1nnc(-c2ccccc2)n1Cc1ccco1

>  <activation, %>
3.8

$$$$

With Kappa-type opioid receptor (Homo sapiens) as the test system, provide measured activation for this molecule: "COCC(=O)N(Cc1cc2ccccc2[nH]c1=O)c1ccc(OC)cc1"
9.6

Tell me its activation on Kappa-type opioid receptor (Homo sapiens): "Nc1ccc(C2(c3ccc(N)cc3)OC(=O)c3ccccc32)cc1"
-7.1

Given "CC(=O)N(Cc1ccco1)C1(C(=O)NC2CCCCC2)CCCCC1" , report its activation on Kappa-type opioid receptor (Homo sapiens).
2.1
